// data source = the supplement of paper PMC12855868

B1: library; numbered along this chain (parent)
chain: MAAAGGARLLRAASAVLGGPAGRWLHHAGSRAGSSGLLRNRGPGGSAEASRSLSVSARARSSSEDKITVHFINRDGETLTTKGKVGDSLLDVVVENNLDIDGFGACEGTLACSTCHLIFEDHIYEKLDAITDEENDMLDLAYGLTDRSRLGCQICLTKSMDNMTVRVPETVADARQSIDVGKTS

- Variants of: B1
- method notes: scaled log2 fold change in cell abundance, elesclomol vs control (0 = silent mean, 1 = nonsense mean) (scaled log2 ratio); higher = higher viability under elesclomol (loss of FDX1 cuproptosis function);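 further: variant abundance is its share of total variant reads in each endpoint sample, from next-generation sequencing of the integrated ORF PCR-amplified out of genomic DNA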
- experimental parameters: with ABC1 FDX1 KO; elesclomol 5 nM; glucose 10 mM; 14 days
Entries get a class label from measured scaled log2 fold change. See ranges: low-valued: < -0.2; mid-valued: ≥ -0.2 and < 0.4; high-valued: ≥ 0.4

-- ask Exercise: read the entry `R58K` and state which class it falls under.
-- reply mid-valued

-- ask Exercise: read the entry `R31I` and state which class it falls under.
-- reply high-valued

-- ask Exercise: read the entry `D128K` and state which class it falls under.
-- reply mid-valued

-- ask Exercise: read the entry `R58T` and state which class it falls under.
-- reply mid-valued

-- ask Exercise: read the entry `R60H` and state which class it falls under.
-- reply low-valued

-- ask Exercise: read the entry `A129C` and state which class it falls under.
-- reply low-valued

-- ask Exercise: read the entry `R11F` and state which class it falls under.
-- reply mid-valued

-- ask Exercise: read the entry `I178C` and state which class it falls under.
-- reply high-valued

-- ask Exercise: read the entry `G86I` and state which class it falls under.
-- reply high-valued

-- ask Exercise: read the entry `E120Q` and state which class it falls under.
-- reply mid-valued
